Measured %Inh of individual entries
- System: NEK5
- assay_setup: concentration: 1 μM, replicates: in singlicate; n = 1;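 note: KINOMEscan kinase panel screen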
Answer in %, number only, no unit symbol.

In plain terms, O=C(Nc1n[nH]c2cc(-c3cccc(F)c3F)ccc12)C1CC1 [SB-733894] has a documented %Inh of 0

Record summary for COc1ccccc1-c1ccc2c(NC(=O)C3CC3)n[nH]c2n1 [SB-711239] : reported %Inh = 0

Recorded result, Clc1cc(Cl)cc(Nc2ccnc(Nc3cc(Cl)cc(Cl)c3)n2)c1 [GSK175726] , %Inh: 23

The measured %Inh associated with Cn1cncc1-c1ccc2ncnc(Nc3ccc(OCc4ccccc4)cc3)c2c1 [GW320571] reads 0

Entry CCCc1ccc(S(=O)(=O)NC2CCN(c3ccnc(Nc4ccc(F)cc4)n3)C2)cc1 (centres unmarked) [GSK1379715] — recorded %Inh = 10

====

This listing pairs molecules with measured %Inh.
- Tested on: STK39
- assay_setup: concentration: 1 μM, replicates: in singlicate; n = 1
Quick note: give the figure in %, leave out the unit.

Please review the entries below; each comes with its answer.
| molecule | %Inh [%] |
| --- | --- |
| Cc1csc(-c2nc(Nc3ccncc3)c3ccccc3n2)n1 [GW869640] | 0 |
| COc1cccc(NC(=O)NC2CCN(c3ccnc(Nc4ccc(F)cc4)n3)C2)c1 (centres unmarked) [GSK1379721] | 9 |
| Cl.Oc1ccc(-c2nc(-c3ccccc3)[nH]c2-c2ccncc2)cc1 [SB-428218] | 0 |
| Nc1ncnc2[nH]c(-c3ccccc3)nc12 [AH5015] | 0 |

In the following, a different molecule is considered.
Looking up Cc1c(Cn2ccn3c(=O)cc(N4CCOCC4)nc23)cccc1C(F)(F)F [GSK2289044] , I found its %Inh recorded as 13

====

- Tested on: PYK2
- Construct: gene PTK2B
- assay_setup: concentration: 1 μM, replicates: in singlicate; n = 1
%Inh: recorded values
Report the figure in % without appending any unit label.

Use these answered entries as a reference point.
| compound | %Inh [%] |
| --- | --- |
| Cn1cncc1-c1ccc2ncnc(Nc3ccc(OCc4ccccc4)cc3)c2c1 | 34 |
| COc1ccc(Nc2nccc(NCCNC(=O)Nc3ccccc3F)n2)cc1 | 8 |
| COc1ccc(CNC(=O)NC2CCN(c3ccnc(Nc4cc(OC)c(OC)c(OC)c4)n3)C2)cc1 (centres unmarked) | 0 |

// recorded %Inh for "Cc1cccc(-c2nc(Nc3ccc4[nH]ncc4c3)c3ccccc3n2)n1" : 0

The reported value for "Fc1cc(Cl)ccc1Nc1ccnc2cc(-c3ccc(CN4CCCCC4)o3)ccc12" in terms of %Inh is 0

====

- System: TLK1
- assay_setup: concentration: 1 μM, replicates: in singlicate; n = 1
// NB: equality with 5% counts as label 0; only %Inh strictly below is label 1

| compound | tested_system | assigned_label |
| --- | --- | --- |
| Fc1cc(Cl)ccc1Nc1ccnc2cc(-c3ccc(CN4CCCCC4)o3)ccc12 | TLK1 | label 1 |
| COc1ccc(Nc2nccc(-c3cccc(NC(=O)c4cc5cc(F)ccc5[nH]4)c3)n2)cc1 | TLK1 | label 1 |
| Cc1cccc(-c2nc(-c3ccc(S(C)(=O)=O)cc3)sc2-c2ccnc(NCCc3ccccc3)c2)c1 | TLK1 | label 0 |
| O=C1NC(=O)C(N2CCc3ccccc32)=C1c1ccccc1Cl | TLK1 | label 0 |
| Cc1c(Cn2ccn3c(=O)cc(N4CCOCC4)nc23)cccc1C(F)(F)F | TLK1 | label 1 |

Confirm or reject: %Inh of "COc1cc2ncnc(Nc3ccc4nc(-c5ccccc5)[nH]c4c3)c2cc1OC.Cl" lies strictly below 5%
label 1

Is the reported %Inh for "Cl.NC(=O)c1cccc(Nc2nccc(Nc3ccc(Oc4cccc(Cl)c4)c(Cl)c3)n2)c1" strictly below 5%?
label 1

%Inh under 5%? Item: "Cl.Oc1ccc(-c2nc(-c3ccccc3)[nH]c2-c2ccncc2)cc1"
label 1

All values here come from paper PMC5540273.
